The measured values listed here are drawn from the MegaScale stability set (Tsuboyama et al. 2023).

Below, each entry is listed alongside its reported folding stability dG.
B1: EEHEE_rd4_0469 (parent)
chain: ITIHVNGVTYHFDNPEEAEKFAQKMAKTYQLKMEIHNGEFHME

Variants of: B1
ASSAY: folding stability dG (cDNA display proteolysis); higher = more stable
RUN CONDITIONS: PBS, room temperature
TEST READOUT: folding stability dG (kcal/mol)

> print(dat)
    variant.string  recorded.measurement
 1            N37D                  1.02
 2            E39Y                 0.934
 3            T28S                  0.87
 4            A22N                 0.367
 5            I35Y                  1.24
 6            D13L                  1.28
 7            Y29W                 0.793
 8             G7W                  1.43
 9            T28Y                  1.91
10             T9A                  1.39
11            E39C                  1.69
12            M33A                 0.574
13            P15R                  1.34
14            K24M                  1.41
15            M42G                 0.673
16             I3S                -0.094
17            F12W                 0.481
18            G38I                 0.832
19            M25A                 0.464
20             I3F                 0.925
21             T2W                  1.47
22            Q23I                  1.27
23             H4P                 0.265
24            E16F                   1.2
25            M25Y                 0.664
26            Q23Y                  1.28
27            M42I                 0.961
